Test system: Fusobacterium nucleatum subsp. animalis
Experiment: growth AUC relative to DMSO control (median of replicates) (fraction); higher = more growth (less inhibition), active = hit call of the paper
Conditions: 20 µM; 24 h
Hi, to clarify the labels: satisfied covers growth AUC from 1 upward, not satisfied covers anything below 1.

CCc1cccc(C)c1N(C(=O)C(=O)O)[C@@H](C)C(=O)O :: satisfied
COC(=O)c1ccccc1S(=O)(=O)NC(=O)Nc1nc(OC(F)F)cc(OC(F)F)n1 :: not satisfied
CCc1nc2ncnn2c(N)c1CCCCCC(=O)O.Cl :: satisfied
COC(=O)CCCOc1ccc(Cl)cc1Cl :: not satisfied
CCOCN(C(=O)C(=O)O)c1c(C)cccc1CC :: satisfied

Q: Test whether the compound `Cc1[nH]oc(=O)c1N=Nc1ccccc1Cl` records growth AUC of 1 or higher.
Result: not satisfied

Q: Test whether the compound `Cc1nc(C(F)(F)F)c(C(=O)Nc2c(Br)cc(OC(F)(F)F)cc2Br)s1` records growth AUC of 1 or higher.
Result: satisfied

Q: Test whether the compound `CSC(=O)c1cccc2nnsc12` records growth AUC of 1 or higher.
Result: satisfied

Q: Test whether the compound `CNC(=O)/C(=N/OC)c1ccccc1COc1cc(C(=O)O)ccc1C` records growth AUC of 1 or higher.
Result: not satisfied

Q: Test whether the compound `COc1cc(OC)nc(NC(=O)NS(=O)(=O)Nc2ccccc2C(=O)N(C)C)n1` records growth AUC of 1 or higher.
Result: not satisfied
